Listing: melting point of selected compounds

COMPOUND: COc1ccc(Br)c2c1C(=O)C(C=O)C2 (stereo not given)
melting point: 76 to 78 °C

COMPOUND: CC1(C)CC(=O)Nc2cc3nc(O)[nH]c3cc21
melting point: > 300 °C

COMPOUND: COc1ccc(OCC2CCC(CBr)CC2)c(Cl)c1 (stereo not given)
melting point: 74 to 78 °C

COMPOUND: COc1cc2c(cc1F)C(c1ccccc1Cl)=NC1=C(C)NNC1=N2
melting point: 217 to 218 °C

COMPOUND: CCC(C(O)c1ccc(Cl)cc1)n1ncn(-c2ccc(N3CCN(C(=O)c4ccccn4)CC3)nc2)c1=O (stereo not given)
melting point: 210 °C

COMPOUND: N#Cc1ccc(COc2ccc(CC(NC(=O)c3cn4ccc(-c5ccc(Cl)cc5)cc4n3)C(=O)O)cc2)cc1 (stereo not given)
melting point: 263 °C

COMPOUND: COC(=O)c1ccc(Br)c(C=O)c1
melting point: 71 to 74 °C

COMPOUND: COc1ccc2nc3c(C)ccc([N+](=O)[O-])c3c(Cl)c2c1
melting point: 227 to 228 °C

COMPOUND: COc1ccc(C=Cc2cccc(C#N)n2)cc1
melting point: 121 to 122 °C

COMPOUND: CC(C)[C@H](C[C@H](N=[N+]=[N-])[C@@H]1C[C@@H](C(C)C)C(=O)O1)C(=O)O
melting point: 56 to 58 °C
